B1: TPR t1 (parent)
chain: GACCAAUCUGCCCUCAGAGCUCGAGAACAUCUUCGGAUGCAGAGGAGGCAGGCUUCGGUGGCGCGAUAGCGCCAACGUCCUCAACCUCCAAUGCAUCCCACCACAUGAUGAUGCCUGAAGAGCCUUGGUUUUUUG

variants of: B1; test: polymerase ribozyme fitness, log enrichment relative to wild type (log ratio); higher = more active; in vitro selection for triplet polymerase activity
Rule: met for polymerase ribozyme fitness (log ratio) not less than -2, not met for anything less.

Reference set, count: 6
mutation_descriptor | category
C4G G10C C115U | not met
A37U C73A | met
C13A G39C G120A | met
A6G C11A C34A G47A A111C | not met
G39U A74G G110C A111G | not met
A18U A46U | not met

Is reported polymerase ribozyme fitness (log ratio) greater than or equal to -2 here: A37U U59G C124G
met

Does the variant A66U G77A have recorded polymerase ribozyme fitness (log ratio) that is -2 or more?
met

Please tell me: is the variant C62G A90U U112A C115G C124U U133C at or over -2 in terms of polymerase ribozyme fitness (log ratio)?
not met
